Attribution: paper PMC10170137

substrate: NC(=O)C1=CN([C@@H]2O[C@H](COP(=O)(O)OP(=O)(O)OC[C@H]3O[C@@H](n4cnc5c(N)ncnc54)[C@H](OP(=O)(O)O)[C@@H]3O)[C@@H](O)[C@H]2O)C=CC1; assay: Nash assay of formaldehyde, fluorescence; coupled to EcAckA; assay type: biochemical, Denitrovibrio acetiphilus; conditions: formyl phosphate made in situ by 10 µM EcAckA from 500 mM ammonium formate and 5 mM ATP, 10 mM MgCl2, MOPS-KOH pH 7.0, 30 °C, varied: cofactor
// values below are reported Km
Numeric only. Scale: µM

Answer with the recorded Km of DaArgC (Denitrovibrio acetiphilus DSM 12809; G182V) (protein, dimer) MKVSVIGATGYTGYELVKILANHPEFEIAALVSETYADKMFSDVYPRLRSICDVVITGRDYDAVAEISDAVFLCLPHAAAQDAAAFFYEKGLKVVDFSADFRLKDKKLYEATYKVDHTYPDLLRKAVYGLPEIFEVDIKKAELVANPGCYPTSVITPLYPLLKAGLISPEGIIADSKSGVTVAGRKADIAYSFCECNEDFRPYAIFSHRHNPEINEVLKETGKETNVLFTPHLIPASKGIESTIYTKTTAGLAEISACLKDFYRERRCVRIYDNGHIPSTADVTDTNFIDIGLFVKGERLIIVSCIDNLIKGSSGMAVQNMNLMCGFDDTLGIL only.
40

Fill in Km for record Denitrovibrio acetiphilus N-acetyl-γ-glutamyl phosphate reductase (DaArgC), wild type (enzyme, N-acetyl-γ-glutamyl phosphate reductase (ArgC) of Denitrovibrio acetiphilus; also called WT DaArgC; Denitrovibrio acetiphilus N-acetyl-γ-glutamyl phosphate dehydrogenase; source: E. coli BL21 (DE3), purified (Ni-Sepharose HisTrap FF, Superdex 200 SEC)) MKVSVIGATGYTGYELVKILANHPEFEIAALVSETYADKMFSDVYPRLRSICDVVITGRDYDAVAEISDAVFLCLPHAAAQDAAAFFYEKGLKVVDFSADFRLKDKKLYEATYKVDHTYPDLLRKAVYGLPEIFEVDIKKAELVANPGCYPTSVITPLYPLLKAGLISPEGIIADSKSGVTGAGRKADIAYSFCECNEDFRPYAIFSHRHNPEINEVLKETGKETNVLFTPHLIPASKGIESTIYTKTTAGLAEISACLKDFYRERRCVRIYDNGHIPSTADVTDTNFIDIGLFVKGERLIIVSCIDNLIKGSSGMAVQNMNLMCGFDDTLGIL
160

Report Km for DaArgC (Denitrovibrio acetiphilus DSM 12809; G182V/S178V) (protein, dimer) MKVSVIGATGYTGYELVKILANHPEFEIAALVSETYADKMFSDVYPRLRSICDVVITGRDYDAVAEISDAVFLCLPHAAAQDAAAFFYEKGLKVVDFSADFRLKDKKLYEATYKVDHTYPDLLRKAVYGLPEIFEVDIKKAELVANPGCYPTSVITPLYPLLKAGLISPEGIIADSKVGVTVAGRKADIAYSFCECNEDFRPYAIFSHRHNPEINEVLKETGKETNVLFTPHLIPASKGIESTIYTKTTAGLAEISACLKDFYRERRCVRIYDNGHIPSTADVTDTNFIDIGLFVKGERLIIVSCIDNLIKGSSGMAVQNMNLMCGFDDTLGIL
60

Further cases:
Provide one value: measured Km of DaArgC (Denitrovibrio acetiphilus DSM 12809; G182V/L233I/S178V) (protein, dimer) MKVSVIGATGYTGYELVKILANHPEFEIAALVSETYADKMFSDVYPRLRSICDVVITGRDYDAVAEISDAVFLCLPHAAAQDAAAFFYEKGLKVVDFSADFRLKDKKLYEATYKVDHTYPDLLRKAVYGLPEIFEVDIKKAELVANPGCYPTSVITPLYPLLKAGLISPEGIIADSKVGVTVAGRKADIAYSFCECNEDFRPYAIFSHRHNPEINEVLKETGKETNVLFTPHIIPASKGIESTIYTKTTAGLAEISACLKDFYRERRCVRIYDNGHIPSTADVTDTNFIDIGLFVKGERLIIVSCIDNLIKGSSGMAVQNMNLMCGFDDTLGIL
50
